Biological target: CHIP (Homo sapiens)
Construct: N-term truncated CHIP (also known as STUB1, Uniprot ID: Q9UNE7, residues 23-303); made in house; host or cells: E. coli BL21 CodonPlus
Sequence (Q9UNE7 23-303): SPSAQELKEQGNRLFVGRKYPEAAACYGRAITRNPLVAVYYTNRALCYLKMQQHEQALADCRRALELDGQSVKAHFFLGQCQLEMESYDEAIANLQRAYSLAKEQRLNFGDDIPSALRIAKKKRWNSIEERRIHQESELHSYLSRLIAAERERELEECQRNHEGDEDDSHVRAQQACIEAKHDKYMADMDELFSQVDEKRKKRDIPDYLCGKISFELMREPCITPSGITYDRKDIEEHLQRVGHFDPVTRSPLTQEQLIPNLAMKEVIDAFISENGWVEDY
Assay: Naive Library Presenter Screening (phage, NGS), CHIP
Format: binding
Conditions: CHIP target concentration 30 nM
Numbered stars: 1 amine (or outer) side, 2 acyl side, 3 side chain; on linkers, the order of the positions; unused ones are H or OH. Bridge positions count the residues as written; N and C are the ends. Ends that are not written are not given here. Phenylene(1,4-NHCOCH2)2 = O=C(C[*:1])Nc1ccc(NC(=O)C[*:2])cc1
Assay readout: interaction data at Target Concentration 30

ICYNARLECE (linker 2-9 via Phenylene(1,4-NHCOCH2)2 (inferred)) = 2
ICYSAWLECE (linker 2-9 via Phenylene(1,4-NHCOCH2)2 (inferred)) = 3

(A) PCYSAWITCES (linker 2-9 via Phenylene(1,4-NHCOCH2)2 (inferred))
(B) PMCSDAWLFCE (linker 3-10 via Phenylene(1,4-NHCOCH2)2 (inferred))
(Q) Which is greater in interaction data at Target Concentration 30, the first item A or the second item B ? # respond with the chosen item's label
(A) A
(A: 134, B: 0)
